targetOrTestSystem: Voltage-gated potassium channel subunit beta-2 (Rattus norvegicus)
protocol: enhancers of rat Kvbeta2 NADPH turnover – biochemical, NADPH fluorescence, primary screen (AID 623);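 note: fluorescence intensity change per second fitted from 20 to 320 s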
experimentalSetup: Recombinant KvBeta, NADPH fluorescence decrease slope, 10 min; at 10 µM; stronger effect = lower value
Calls of active or inactive are those of the source.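 Rule for the calls: active = NADPH fluorescence slope more negative than the mean of all samples by about 3 SD, 99.7% confidence; inactive = the rest.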
endpointName: NADPH fluorescence slope

Take a look at these entries with their results.
| compound | endpointName | observed |
| --- | --- | --- |
| O=C(O)c1cc2nc(-c3ccc(F)cc3)cc(C(F)(F)F)n2n1 | NADPH fluorescence slope | -4.1e-05 (inactive) |
| CCCS(=O)(=O)NCCc1cc2cc(C)c(C)cc2[nH]c1=O | NADPH fluorescence slope | -7.5e-05 (inactive) |
| CC(C)(C)n1nnnc1CN1CCN(C2CCCC2)CC1 | NADPH fluorescence slope | -4.3e-05 (inactive) |
| Cc1ccc(NC(=O)C2CCCN2S(=O)(=O)c2cccc3cccnc23)cc1F (centres undefined) | NADPH fluorescence slope | -3.9e-05 (inactive) |
| COc1ccc(S(=O)(=O)N2CCN(Cc3ccc(Cl)cc3)CC2)cc1 | NADPH fluorescence slope | -9.2e-06 (inactive) |

Lab note: each compound below needs its NADPH fluorescence slope filled in.
1. Cc1cccc(NC(=O)CSc2nnc(-c3cc(C)n(-c4ccccc4)c3C)o2)c1C
2. CC1CCN(C(=O)CSc2nnc(Cc3cc(=O)[nH]c(=O)[nH]3)n2-c2ccc(Cl)cc2)CC1
3. CCOC(=O)Cn1nc(-c2ccc(C)cc2)ccc1=O

Data returned:
-1.4e-05 (inactive)
-8.2e-06 (inactive)
-0.000149 (inactive)

Lab note: each compound below needs its NADPH fluorescence slope filled in.
1. CCOc1ccc2ccccc2c1C(=O)N1CCN(c2ccccc2)CC1
2. Cc1cc(C)n(-c2ccc(C(=O)Oc3ccc4c(c3)OCO4)cc2)n1

Data returned:
-1.3e-05 (inactive)
-2.1e-05 (inactive)

Lab note: each compound below needs its NADPH fluorescence slope filled in.
1. O=C(C1CC1)N1CCC(c2nc(-c3ccc(S(=O)(=O)NCC4CCCO4)cc3)no2)CC1 (centres undefined)
2. O=C(CN1CCN(c2ccccn2)CC1)N1c2ccccc2CCc2ccccc21

Data returned:
["3.5e-06 (inactive)", "-5.2e-05 (inactive)"]

---

Please provide measured nuclei count for the entries that follow.
protocol: endothelial E-selectin expression blockers – imaging, HUVEC, immunofluorescence, MLSMR starter and 10KST1 sets, primary screen (AID 487);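 note: 100% = median nuclei count of all wells on the same plate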
experimentalSetup: HUVEC TNFalpha-induced E-selectin immunofluorescence imaging, at 2 µM; measured here: cell number, toxicity
State the result as a value with its unit after it.

Take a look at these entries with their results.
| molecule | nuclei count |
| --- | --- |
| CCCCOc1ccc(N(CC(=O)NC2CCCC2)C(=O)CCC(=O)Nc2ccccn2)cc1 | 101% |
| Cn1c(Cc2ccccc2)nnc1SCC(=O)c1ccc(Br)s1 | 98.1% |
| C/C(N)=C(/C#N)C(=O)COC(=O)c1cc(C)n(-c2ccc(F)cc2)c1C | 146% |
| Cc1nc(C)c(C(=O)C2=C(O)C(=O)N(CCCn3ccnc3)C2c2ccccc2)s1 (stereo not given) | 88.2% |

Data request: Any idea what its nuclei count is? The molecule is CCOC(=O)N1CCN(C(=O)CN(c2ccc(C)cc2)S(=O)(=O)c2c(C)noc2C)CC1
Data returned: 108%

---

protocol: inhibitors of TNFa-induced NFkB p65 translocation, primary screen, imaging, HUVEC, MLSMR starter and 10KST1 sets (AID 438);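 note: compound added about 3h40 before a 20 min TNFalpha stimulation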
experimentalSetup: HUVEC TNFa-induced p65 nuclear translocation; measured here: nuclei count (cytotoxicity indicator), at 2.08 µM
Everything with cell count lower than 600 is not met; everything else, including exactly 600, is met.

Known results for compounds:
| compound | assignedLabel |
| --- | --- |
| CCC(c1nnnn1Cc1ccco1)N(CCc1ccccc1)Cc1cc2cccc(C)c2[nH]c1=O (configuration not stated) | met |
| CCCn1c(=O)c2ccccc2n2c(SCCOc3ccccc3F)nnc12 | not met |
| Nn1c(SCC(=O)Nc2ccc3c(c2)OCO3)nnc1C1CC1 | not met |
| CCCC(=O)Nc1ccc2oc(-c3cccnc3)nc2c1 | not met |

Data request: Threshold query (cell count >= 600) on CC(C)CCNC(=O)C(c1cccs1)N(CC1CCCO1)C(=O)Cn1nnc2ccccc21 (configuration not stated)
Data returned: met

Data request: Threshold query (cell count >= 600) on O=C(CCn1cccc1)N1CCc2ccccc21
Data returned: not met

Data request: Threshold query (cell count >= 600) on CCOc1ccc(NC(=O)CC2NCCNC2=O)cc1 (configuration not stated)
Data returned: met

Data request: Threshold query (cell count >= 600) on O=S(=O)(NC1CCCCC1NS(=O)(=O)c1ccc(F)cc1)c1ccc(F)cc1 (configuration not stated)
Data returned: not met

Data request: Threshold query (cell count >= 600) on COc1ccc(C/C(N)=N/n2cnnc2)cc1Cl
Data returned: not met

Data request: Threshold query (cell count >= 600) on COC(=O)c1sc(N2C(=O)C(O)=C(C(=O)c3ccc(C)o3)C2c2ccc(F)cc2)nc1C (configuration not stated)
Data returned: not met

Data request: Threshold query (cell count >= 600) on CC1(C)COCN1S(=O)(=O)c1ccc(C(=O)Nc2nnc(-c3ccc(Cl)s3)o2)cc1
Data returned: not met

---

protocol: inhibitors of TNFa-induced NFkB p65 translocation, primary screen, imaging, HUVEC, MLSMR starter and 10KST1 sets (AID 438);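 note: compound added about 3h40 before a 20 min TNFalpha stimulation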
experimentalSetup: HUVEC TNFa-induced p65 nuclear translocation; measured here: nuclei count (cytotoxicity indicator), at 2.08 µM
Please provide measured cell count for the entries that follow.
Answers are plain numbers.

Take a look at these entries with their results.
| compound | cell count |
| --- | --- |
| Cc1cccc2cc(COC(=O)C(C)(C)C)c(=O)[nH]c12 | 364 |
| CCOc1cc(CN2CCN(C(=O)c3ccco3)CC2)ccc1OC | 403 |
| C/C=C/COC(=O)c1[nH]c2c(c1C)C(=O)CC(c1ccco1)C2 (configuration not stated) | 582 |
| O=C1CCCc2c1cc(C(=O)NCCCN1CCOCC1)c(=O)n2-c1ccc(Cl)cc1 | 568 |
| CC(=O)Nc1cccc(NC(=O)c2oc3ccccc3c2C)c1 | 343 |

Lab note: each compound below needs its cell count filled in.
1. Cc1cccc(OCC(=O)N2CCN(C(=O)Cc3ccccc3)CC2)c1
2. Cc1cc(Oc2ccc(Cl)cc2)nc(-c2ccccc2O)n1
3. COCCCN(C(C)=O)c1nc(-c2ccccc2)cs1
4. Cc1nc2ccccc2c(=O)n1CC(=O)N1CCOCC1
5. CN(CCCNC(=O)c1cn(C)c2ccc(S(=O)(=O)N(C)C)cc2c1=O)c1ccccc1
6. COC(=O)c1ccccc1NC(=O)c1ccc(COc2ccccc2)o1

Data returned:
[264, 612, 472, 558, 596, 845]

Lab note: each compound below needs its cell count filled in.
1. Cc1ccc(N2CC(C)Cn3c2nc2c3c(=O)n(CC(=O)OCc3ccccc3)c(=O)n2C)cc1C (configuration not stated)
2. CCOC(=O)Cn1c(CN2CCN(c3cccc(Cl)c3)CC2)nc2c1c(=O)[nH]c(=O)n2C
3. CCN1CCN(c2ncnc3c2cnn3-c2ccc(C)cc2C)CC1
4. CCOC(=O)c1ccccc1NC(=O)c1cccnc1

Data returned:
[242, 669, 561, 381]

Lab note: each compound below needs its cell count filled in.
1. COc1ccc(S(=O)(=O)N2CCN(CC(=O)Nc3ccc(F)c(F)c3)CC2)cc1
2. O=C(NC1CCCc2ccccc21)C1CCN(c2nnc(-n3cccc3)s2)CC1 (configuration not stated)

Data returned:
1: 322; 2: 686

---

Please provide measured inhibition for the entries that follow.
protocol: inhibitors of TNFa-induced NFkB p65 translocation, primary screen, imaging, HUVEC, MLSMR starter and 10KST1 sets (AID 438);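 note: compound added about 3h40 before a 20 min TNFalpha stimulation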;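 for inhibition: signal is the nuclear over cytoplasmic p65 intensity ratio per well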
experimentalSetup: HUVEC TNFa-induced p65 nuclear translocation; at 2 µM, stronger effect = higher value, 0% TNFa-plus-vehicle, 100% no-TNFa wells
Numbers only, in %.

| smilesRepresentation | observed |
| --- | --- |
| COc1ccc(NC(=O)c2cc(C)on2)cc1OC | 3.7 |
| CCOc1cc(C(=O)Nc2ccon2)cc(OCC)c1OCC | 0.3 |

Now take the following compound into account.
Data request: Any idea what its inhibition is? The compound is O=C(CSc1nnc2ccccn12)c1ccccc1
Data returned: 7.7

---

targetOrTestSystem: Alpha-2C adrenergic receptor (Homo sapiens) (UniProt P18825)
Sequence (P18825 whole entry, looked up): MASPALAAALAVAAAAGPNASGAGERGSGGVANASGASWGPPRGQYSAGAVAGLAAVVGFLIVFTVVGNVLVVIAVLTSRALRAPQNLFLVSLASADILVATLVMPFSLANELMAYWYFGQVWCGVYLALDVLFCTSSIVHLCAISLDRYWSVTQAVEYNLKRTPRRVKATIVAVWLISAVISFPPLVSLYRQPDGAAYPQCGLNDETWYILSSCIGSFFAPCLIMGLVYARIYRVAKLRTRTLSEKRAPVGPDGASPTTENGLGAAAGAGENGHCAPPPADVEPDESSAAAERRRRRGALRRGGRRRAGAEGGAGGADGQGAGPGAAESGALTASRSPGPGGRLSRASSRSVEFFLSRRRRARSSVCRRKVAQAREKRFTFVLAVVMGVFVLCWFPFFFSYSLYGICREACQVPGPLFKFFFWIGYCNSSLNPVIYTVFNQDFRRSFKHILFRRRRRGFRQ
protocol: compounds altering alpha2C-coupled GIRK flux – cell-based, HEK293 alpha2C/GIRK1/2, thallium flux, primary screen (AID 624);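 note: slope of fluorescence ratio to pre-addition baseline per second over 15 to 24 s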
experimentalSetup: thallium flux BTC fluorescence, at 10 µM, actives lie on both sides
Please provide measured slope for the entries that follow.
One number for each entry.

Take a look at these entries with their results.
| molecule | slope |
| --- | --- |
| O=C(CCN1C(=O)C2C3C=CC(C3)C2C1=O)NCCc1ccccc1Cl (stereo not given) | 0.00634 |
| CCCCCCOC(=O)C(C#N)c1nc2ccccc2nc1N1CCCCC1 (stereo not given) | 0.00357 |
| COc1ccc2[nH]c(=O)c(CN(CC3CCCO3)C(=O)Nc3ccc(F)cc3)cc2c1 (stereo not given) | 0.00737 |
| Cc1nn(C)c(C)c1NC(=O)CSc1nc(Cc2ccccc2)nc2c1cnn2-c1ccccc1 | 0.00793 |

Data request: Any idea what its slope is? The molecule is CCc1nnc2n1N=C(c1ccc(-c3ccc(Cl)cc3Cl)o1)CS2
Data returned: 0.00636
